Measured MIC values are reported for all entries that follow.
Tested on: Streptococcus Group D X66
Assay: MIC, standard agar-dilution assay (Table III)
Format: cell-based
Conditions: agar dilution; Streptococcus Group D X66; read-out: MIC
property: MIC (µg/mL)

INSERT INTO assay_data (compound, scale_unit, measured) VALUES
  ('CCC1OC(=O)CC(O)C(C)C(OC2OC(C)C(O)C(N(C)C)C2O)C(CC=O)CC(C)C(=O)C=CC(C)=CC1CN1CCC2(CCCCC2)CC1 (centres unmarked) [Compound 27]', 'µg/mL', 0.25),
  ('CCC1OC(=O)CC(O)C(C)C(OC2OC(C)C(O)C(N(C)C)C2O)C(CC=O)CC(C)C(=O)C=CC(C)=CC1CN1C2CCCCC2C2CCCCC21 (centres unmarked) [Compound 25]', 'µg/mL', 0.5),
  ('CCC1OC(=O)CC(O)C(C)C(OC2OC(C)C(O)C(N(C)C)C2O)C(CC=O)CC(C)C(=O)C=CC(C)=CC1CN1CC2CC=CCC2C1 (centres unmarked) [Compound 37]', 'µg/mL', 0.125),
  ('CCC1OC(=O)CC(O)C(C)C(OC2OC(C)C(O)C(N(C)C)C2O)C(CC=O)CC(C)C(=O)C=CC(C)=CC1CN1CCCC12CCCCC2 (centres unmarked) [Compound 31]', 'µg/mL', 0.25),
  ('CCC1OC(=O)CC(O)C(C)C(OC2OC(C)C(O)C(N(C)C)C2O)C(CC=O)CC(C)C(=O)C=CC(C)=CC1CN1CCc2ccccc2C1 (centres unmarked) [Compound 29]', 'µg/mL', 0.125);
